# target_system: HLA A2 (Homo sapiens, UniProt P04439, D140Y/D185E/D98H/E176V/E277Q/G131W/G231S/I119V/I121R/I166T/I218V/L300P/L318F/N151K/N90K/P208A/P217A/Q86G/Q94H/R138H/R169H/T345S)
# Construct: endogenous in cells; host or cells: T2 cells
# Assay type: cell-based
# measurement_setup: HLA A2 on T2 cells; relative increase in HLA expression vs no peptide at 26° C.

{"columns": ["query_sequence", "MSE (MHC stabilization efficiency)"],
 "data": [
  ["ALVNAVNKL (human cytomegalovirus pp150 CTL epitope peptide)", "++ (++ = 100-199%)"],
  ["SLVRLVYIL (human cytomegalovirus gH CTL epitope peptide)", "+ (+ = 51-99%)"],
  ["ILARNLVPM", "++ (++ = 100-199%)"],
  ["AVGGAVASV (human cytomegalovirus gB CTL epitope peptide)", "− (− = 0-50%)"],
  ["PLIPTTAVI (human cytomegalovirus pp150 CTL epitope peptide)", "− (− = 0-50%)"],
  ["LMNGQQIFL", "++ (++ = 100-199%)"],
  ["DLDEGIMVV (human cytomegalovirus gB CTL epitope peptide)", "− (− = 0-50%)"],
  ["LLIPKSFTL (human cytomegalovirus pp71 CTL epitope peptide)", "− (− = 0-50%)"],
  ["LLSEFCRVL (human cytomegalovirus IE1 CTL epitope peptide)", "++ (++ = 100-199%)"],
  ["ILDEERDKV (human cytomegalovirus IE1 CTL epitope peptide)", "++ (++ = 100-199%)"],
  ["TLVIPSWHV (human cytomegalovirus pp71 CTL epitope peptide)", "++ (++ = 100-199%)"],
  ["PLREYLADL (human cytomegalovirus pp28 CTL epitope peptide)", "− (− = 0-50%)"],
  ["LIEDFDIYV (human cytomegalovirus pp150 CTL epitope peptide)", "++ (++ = 100-199%)"],
  ["GQTEPIAFV (human cytomegalovirus pp150 CTL epitope peptide)", "+ (+ = 51-99%)"],
  ["CLQNALDIL (human cytomegalovirus IE1 CTL epitope peptide)", "++ (++ = 100-199%)"]
]}
